SYSTEM: Gastrin/cholecystokinin type B receptor (Cavia porcellus)
TEST PROTOCOL: Half-maximal inhibition of binding of [125I]gastrin to guinea pig gastric glands
pIC50: −log10 of the molar value.
pIC50 vs 5: at or above is Y, below is N.

Prompt: Tell me whether pIC50 is at least 5 here: "O=C(O)CCN1C(=O)[C@@H](Cc2c[nH]c3ccccc23)N=C(c2ccccc2F)c2ccccc21"
Completion: Y

Prompt: Tell me whether pIC50 is at least 5 here: O=C1Nc2ccccc2C1C[C@H]1N=C(c2ccccc2)c2cc(Cl)ccc2NC1=O (stereo not given in full)
Completion: N

Prompt: Tell me whether pIC50 is at least 5 here: O=C(O)CN1C(=O)[C@@H](Cc2c[nH]c3ccccc23)N=C(c2ccccc2F)c2ccccc21 [CCK antagonist synthetic 13]
Completion: Y

Prompt: Tell me whether pIC50 is at least 5 here: "CC(C)C[C@H]1N=C(c2ccccc2)c2cc(Cl)ccc2NC1=O"
Completion: N

Prompt: Tell me whether pIC50 is at least 5 here: "CCN1C(=O)[C@@H](Cc2c[nH]c3ccccc23)N=C(c2ccccc2F)c2ccccc21"
Completion: N

Prompt: Tell me whether pIC50 is at least 5 here: CC(C)CC(N)C(=O)N1CC(CC2N=C(c3ccccc3)c3ccccc3NC2=O)c2ccccc21 (stereo not given)
Completion: N

Prompt: Tell me whether pIC50 is at least 5 here: "CN1C(=O)[C@@H](Cc2c[nH]c3ccccc23)N=C(c2ccccc2)c2ccccc21"
Completion: N

Prompt: Tell me whether pIC50 is at least 5 here: "CC(C)CCN1C(=O)[C@@H](Cc2c[nH]c3ccccc23)N=C(c2ccccc2F)c2ccccc21"
Completion: N

Prompt: Tell me whether pIC50 is at least 5 here: "CN1C(=O)[C@@H](Cc2cn(C)c3ccccc23)N=C(c2ccccc2)c2ccccc21"
Completion: N
